# IC50 values compiled below
- target-under-test: human CB1 (cannabinoid receptor 1) (Homo sapiens, UniProt P21554)
- Sequence (P21554 whole entry): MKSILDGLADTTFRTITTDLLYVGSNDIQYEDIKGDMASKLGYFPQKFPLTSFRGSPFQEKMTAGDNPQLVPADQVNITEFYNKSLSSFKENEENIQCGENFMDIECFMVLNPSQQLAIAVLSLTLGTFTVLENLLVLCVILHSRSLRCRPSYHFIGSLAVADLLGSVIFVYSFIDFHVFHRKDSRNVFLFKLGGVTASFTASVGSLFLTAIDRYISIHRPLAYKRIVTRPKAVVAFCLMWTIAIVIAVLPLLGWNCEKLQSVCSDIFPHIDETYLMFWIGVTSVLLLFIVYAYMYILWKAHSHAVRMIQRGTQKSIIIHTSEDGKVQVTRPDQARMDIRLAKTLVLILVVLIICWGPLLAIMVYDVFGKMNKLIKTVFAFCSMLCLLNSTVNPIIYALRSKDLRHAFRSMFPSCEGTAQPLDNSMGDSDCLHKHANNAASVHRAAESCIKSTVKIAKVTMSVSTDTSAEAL
- method-description: CB1 receptor inhibition effect: calcium ion influx assay (Fluo-4 NW) in Chem-1 cells after 1 μM R-(+)-WIN55212-2
- assay-setup: calcium ion influx in Chem-1 cells expressing human CB1, 1 μM R-(+)-WIN55212-2
Output spec: scalar in nM, unitless text.

Sample records with IC50:
• Cc1nn2c(-c3ccccc3F)cc(N3CCC[C@H]3CO)nc2c1-c1ccc2c(c1)OCO2 = 240
• CCOc1ccc(-c2c(C)nn3c(-c4ccc(F)c(F)c4)cc(N4CCC[C@H]4CO)nc23)cc1 = 180
• CCOCc1nn2c(-c3cccc(C(F)(F)F)c3)cc(N(C)CCO)nc2c1-c1ccc(C)cc1 = 10

# input Bench note: what IC50 did Cc1nn2c(-c3cccc(F)c3)cc(N3CCC[C@H]3CO)nc2c1-c1ccc(C(F)F)cc1 show?
# output 77

# input Quick check: IC50 of COc1ccc(-c2c(C)nn3c(-c4ccc(OC)cc4)cc(N4CCC[C@H]4CO)nc23)cc1 ?
# output 350

# input Fill in: IC50 of Cc1ccc(-c2c(C)nn3c(-c4ccc(Cl)cc4)cc(N4CCC[C@H]4CO)nc23)cc1 is ___
# output 140

# input Quick one: IC50 for CCOc1ccc(-c2c(C)nn3c(-c4ccc(F)cc4)cc(N4CCC[C@H]4CO)nc23)cc1 ?
# output 100

# input # get_value(readout='IC50', item= CCc1cccc(-c2cc(N3CCC[C@H]3CO)nc3c(-c4ccc5c(c4)OCO5)c(C)nn23)c1 )
# output 210

# input Which IC50 is listed for COc1ccc(-c2c(C)nn3c(-c4ccc(F)c(F)c4)cc(N4CCC[C@H]4CO)nc23)cc1 ?
# output 100

# input # IC50 lookup, item Cc1ccc(-c2c(C)nn3c(-c4ccccc4)cc(N4CCC[C@H]4CO)nc23)cc1
# output 120

# input What value of measured IC50 is listed for CCc1ccc(-c2c(C)nn3c(-c4ccc(F)cc4)cc(N4CCC[C@H]4CO)nc23)cc1 ?
# output 230

# input IC50 for Cc1cccc(-c2cc(N3CCC[C@H]3CO)nc3c(-c4ccc(Cl)cc4)c(C)nn23)c1 ?
# output 210

# input Given the compound CCOCc1nn2c(-c3cccc(F)c3)cc(N3CCC[C@H]3CO)nc2c1-c1ccc(C)cc1 , what is its reported IC50?
# output 5

# input Item COc1ccc(-c2c(C)nn3c(-c4cc(F)cc(F)c4)cc(N4CCC[C@H]4CO)nc23)cc1 has what recorded IC50?
# output 120

# input For the compound COc1ccc(-c2c(C)nn3c(-c4cccc(F)c4)cc(N4CCC[C@H]4CO)nc23)cc1 , what IC50 is on record?
# output 60

# input For the compound shown here, CCc1cccc(-c2cc(N3CCC[C@H]3CO)nc3c(-c4ccc(Cl)cc4)c(C)nn23)c1 , give the reported IC50.
# output 90
